Hey, just so you know, these numbers are from paper PMC11231340.

- Target Under Test: T1, GST-WRNIP1 (Homo sapiens, UniProt Q96S55 1-665)
- T1 sequence: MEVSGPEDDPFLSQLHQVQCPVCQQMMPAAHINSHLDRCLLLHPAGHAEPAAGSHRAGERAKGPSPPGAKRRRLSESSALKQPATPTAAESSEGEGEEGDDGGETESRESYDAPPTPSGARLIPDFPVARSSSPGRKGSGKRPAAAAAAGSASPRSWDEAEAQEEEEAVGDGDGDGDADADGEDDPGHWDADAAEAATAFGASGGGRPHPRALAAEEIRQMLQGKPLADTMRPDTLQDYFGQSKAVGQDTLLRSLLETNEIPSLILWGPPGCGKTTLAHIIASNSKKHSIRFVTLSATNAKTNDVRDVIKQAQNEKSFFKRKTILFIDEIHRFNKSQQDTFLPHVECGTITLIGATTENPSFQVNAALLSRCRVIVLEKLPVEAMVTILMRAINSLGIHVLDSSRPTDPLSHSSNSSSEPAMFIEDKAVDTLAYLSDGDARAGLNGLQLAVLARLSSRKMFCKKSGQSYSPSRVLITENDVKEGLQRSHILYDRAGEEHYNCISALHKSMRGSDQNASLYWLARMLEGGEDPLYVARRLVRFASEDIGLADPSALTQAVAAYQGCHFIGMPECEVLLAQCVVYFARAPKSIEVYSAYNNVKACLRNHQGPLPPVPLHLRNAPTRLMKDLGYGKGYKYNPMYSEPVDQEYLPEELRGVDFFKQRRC
- Test Description: fluorescence anisotropy; no ATP (ATP comparison series); Hill n 0.72; Anisotropy: 10 nM DNA, 50 mM Tris-HCl pH 7.5, 90 mM KCl, 5 mM EDTA, with or without 1 mM ATP and 1.25 mM MgCl2, 25 C; EMSA: 50 nM DNA, 50 mM Tris-HCl pH 7.5, 150 mM KCl, 15 min 25 C, 6% native gel; DNA folded in 25 mM Tris-HCl pH 7.5, 50 mM KCl
- Condition: protein: recombinant; (GST fusion); label: 5' FITC; intramolecular G4 with 3' ssDNA tail of 21 nt

[
  {
    "Binder": "TGAGGGTGGGTAGGGTGGGTGCGTCTGCGGCTGGCTCGAGGC (structured_DNA) [MYC G4 ss (Myc2345)]",
    "Kd": "175 nM"
  }
]
